Target: Aromatase (Homo sapiens)
Test: qHTS assay to identify aromatase inhibitors (AID 743083); also: nearly all actives have a fitted effect of over 55% in size
Settings: MCF-7 aro ERE, testosterone-driven ERE luciferase, 24 h; series mostly up to 70.3 µM
Inconclusive results are not listed. Calls of active or inactive are those of the source. Calls follow the shape of the dose curve; as a rule, active = well fitted inhibition curve with a large enough effect in the repeat runs; inconclusive = weak or mixed curves; inactive = no such curve, though single readings can be large or run the other way.
Labels: True = active, False = inactive

Compound | Class name
Nc1ccc(Nc2ccccc2)cc1 | False
Cc1ccc(C)c(O)c1C | False
O=CCCCC=O | False
CC(C(=O)O)c1cccc(C(=O)c2ccccc2)c1 (stereo not drawn) | False
O=C(c1ccccc1)c1ccc(O)cc1O | False
C[C@]12CC[C@H]3[C@@H](CCC4=CC(=O)CC[C@@]43C)[C@@H]1CC[C@@H]2C(=O)CO | False
O=C(OCc1ccccc1)c1ccccc1O | False
CCC(C)OC(=O)c1ccc(O)cc1 (stereo not drawn) | False
c1ccc2c(c1)Oc1ccccc1S2 | False
CCCc1c(OCCCCc2nn[nH]n2)ccc(C(C)=O)c1O | False
c1ccc2sc(SSN3CCOCC3)nc2c1 | True
CCC(C)(O)CCCC(C)C (stereo not drawn) | False
CC(C)(C)NC(=O)[C@H]1CC[C@H]2[C@@H]3CC[C@H]4NC(=O)C=C[C@]4(C)[C@H]3CC[C@]12C | False

###

Test: qHTS assay for small molecule agonists of the p53 signaling pathway - cell viability (AID 651633); also: nearly all actives have a fitted effect of over 30% in size; also: potency is read from the fitted curve at half-maximal effect
Conditions: p53RE-bla HCT-116 viability, ATP luminescence, 16 h; series mostly up to 83.3 µM
Results filed as inconclusive are left out. Activity calls are given as the source filed them. Calls come from the whole dose curve.

Molecule | Potency
CC(C)Oc1ccc2c(=O)c(-c3ccccc3)coc2c1 | inactive
Clc1nc(Cl)c(Cl)c(Cl)c1Cl | inactive
COC(=O)CCC(=O)OC | inactive
COc1cccc2c1C(=O)c1c(O)c3c(c(O)c1C2=O)C[C@@](O)(C(=O)CO)C[C@@H]3O[C@H]1C[C@H](N)[C@H](O)[C@H](C)O1 | inactive
CCC(C)OC(=O)c1ccc(O)cc1 (stereo not given) | inactive
Brc1cc(Oc2cc(Br)c(Br)c(Br)c2Br)c(Br)c(Br)c1Br | inactive
c1ccc2sc(SSN3CCOCC3)nc2c1 | inactive
O=[N+]([O-])c1ccc2c(c1)Cc1ccccc1-2 | inactive
C=CC(C)(CCC=C(C)C)OC(C)=O (stereo not given) | inactive
Cc1cccc([N+](=O)[O-])c1C | inactive
COc1c(Cl)c(Cl)c(Cl)c(Cl)c1Cl | inactive
CCCCC/C=C/C=C/C=O | 54 µM (active)
COC(=O)c1ccccc1 | inactive
CCCCCCCCCC(=O)OC | inactive
C=C(C)C1CC=C(C)CC1 (stereo not given) | inactive

###

Assay: qHTS assay to identify small molecule antagonists of the peroxisome proliferator-activated receptor gamma (PPARg) signaling pathway - cell viability counter screen (AID 743194); also: nearly all actives have a fitted effect of over 55% in size
Conditions: PPARg-bla HEK293H viability, CellTiter-Glo luminescence, 17 h, co-treated with 50 nM rosiglitazone; series mostly up to 62.6 µM
Records with an inconclusive call do not appear. Activity calls are given as the source filed them. Calls come from the whole dose curve; as a rule, active = well fitted cell-killing curve with a large enough effect in the repeat runs; inconclusive = weak or mixed curves, or effect the other way; inactive = no such curve, though single readings can be large or run the other way.
Labels: active, inactive

Structure smiles | Class name
CC(C)OC(=O)C(C)(C)Oc1ccc(C(=O)c2ccc(Cl)cc2)cc1 | inactive
CN(C)C(=N)N=C(N)N | inactive
C#C[C@]1(O)CC[C@H]2[C@@H]3CCC4=Cc5oncc5C[C@]4(C)[C@H]3CC[C@@]21C | active
COc1ccc(C(=O)CC(=O)c2ccc(C(C)(C)C)cc2)cc1 | inactive
CC(C)OC=O | inactive
O=[N+]([O-])c1ccc2c(c1)Cc1ccccc1-2 | inactive
